Target: MERTK (UniProt Q12866)
Sequence (Q12866 whole entry, looked up): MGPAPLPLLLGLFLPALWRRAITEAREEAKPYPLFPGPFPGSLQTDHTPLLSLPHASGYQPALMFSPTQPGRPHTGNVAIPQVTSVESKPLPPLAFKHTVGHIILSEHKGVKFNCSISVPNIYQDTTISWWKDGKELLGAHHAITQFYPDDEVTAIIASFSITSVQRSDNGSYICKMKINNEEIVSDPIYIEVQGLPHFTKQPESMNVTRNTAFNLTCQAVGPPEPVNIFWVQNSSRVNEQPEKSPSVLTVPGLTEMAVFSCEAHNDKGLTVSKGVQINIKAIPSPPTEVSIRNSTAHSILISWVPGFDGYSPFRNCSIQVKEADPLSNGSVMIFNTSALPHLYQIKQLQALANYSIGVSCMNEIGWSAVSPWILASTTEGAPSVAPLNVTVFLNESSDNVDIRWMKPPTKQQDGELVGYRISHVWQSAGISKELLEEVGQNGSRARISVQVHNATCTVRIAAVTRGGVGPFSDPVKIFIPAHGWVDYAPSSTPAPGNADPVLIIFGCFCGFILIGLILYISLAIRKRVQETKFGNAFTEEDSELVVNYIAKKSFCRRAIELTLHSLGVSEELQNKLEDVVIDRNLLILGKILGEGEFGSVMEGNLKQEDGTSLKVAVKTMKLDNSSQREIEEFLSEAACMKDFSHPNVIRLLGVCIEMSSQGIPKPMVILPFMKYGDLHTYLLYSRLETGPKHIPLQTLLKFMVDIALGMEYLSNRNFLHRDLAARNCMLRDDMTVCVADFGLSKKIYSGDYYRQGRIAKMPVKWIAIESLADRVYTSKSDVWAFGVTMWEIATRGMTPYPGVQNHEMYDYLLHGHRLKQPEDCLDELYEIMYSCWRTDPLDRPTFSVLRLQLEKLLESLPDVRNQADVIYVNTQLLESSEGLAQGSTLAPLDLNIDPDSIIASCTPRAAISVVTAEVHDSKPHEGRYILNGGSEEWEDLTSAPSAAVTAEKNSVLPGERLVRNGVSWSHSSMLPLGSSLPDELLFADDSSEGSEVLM
Test: phosphorylation enrichment, bacterial display (enrichment ratio); higher = better substrate or ligand; peptides without Tyr show the background;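 also: 11-residue human phosphosite peptides and single-mutation variants displayed on the E. coli surface, counted by deep sequencing, each peptide's frequency after selection divided by its frequency in the unselected input library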;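 also: frequency after pTyr selection over input frequency; kinase dosed for 20-30% of maximal phosphorylation in three min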
Short version: phosphorylation enrichment at least 0.5 is label 1, less is label 0.

Query: Form field: phosphorylation enrichment at least 0.5? Entry: FRSSLYLLMET [MYO5C_Y633]
Result: label 1

Query: Form field: phosphorylation enrichment at least 0.5? Entry: RRVLVYGGRGA [QDPR_Y16]
Result: label 1

Query: Form field: phosphorylation enrichment at least 0.5? Entry: AQQPIYIRVEG [NLRP7_Y318_V319I]
Result: label 1

Query: Form field: phosphorylation enrichment at least 0.5? Entry: TEYIQYMRRKN [MAX_Y73]
Result: label 1

Query: Form field: phosphorylation enrichment at least 0.5? Entry: NHYKRYNLCAE [PTEN_Y68_I67R]
Result: label 0

Query: Form field: phosphorylation enrichment at least 0.5? Entry: RPFRPYIIRGM [LRP5_Y1531_YF]
Result: label 1

Query: Form field: phosphorylation enrichment at least 0.5? Entry: GRQGIYKENER [GPR143_Y231_T232K]
Result: label 1

Query: Form field: phosphorylation enrichment at least 0.5? Entry: HLWRIYFDITD [MMP27_Y307_YF]
Result: label 0

Query: Form field: phosphorylation enrichment at least 0.5? Entry: PVDNLYAEPAV [PRPS1_Y146]
Result: label 1

Query: Form field: phosphorylation enrichment at least 0.5? Entry: NTPNTYLRVNV [ADD2_Y440]
Result: label 0

Query: Form field: phosphorylation enrichment at least 0.5? Entry: MSGDVYSTDYY [NTRK2_Y702_R699G]
Result: label 1

Query: Form field: phosphorylation enrichment at least 0.5? Entry: SRIWVYNHFRW [BRCA2_Y2621_YF]
Result: label 0

Query: Form field: phosphorylation enrichment at least 0.5? Entry: SRDPFYEMLTA [CYTH1_Y382_A386T]
Result: label 1

Query: Form field: phosphorylation enrichment at least 0.5? Entry: VMTVDYSKTVV [SETD2_Y770]
Result: label 0

Query: Form field: phosphorylation enrichment at least 0.5? Entry: LLASRYDSPIN [ABLIM1_Y638]
Result: label 1

Query: Form field: phosphorylation enrichment at least 0.5? Entry: DRTVHYVDEKG [IFT140_Y216_G212R]
Result: label 0

Query: Form field: phosphorylation enrichment at least 0.5? Entry: GTATAYLCGVK [ALPL_Y117]
Result: label 0

Query: Form field: phosphorylation enrichment at least 0.5? Entry: TDRNLYSKNLV [CFAP58_Y501_S496T]
Result: label 1

Query: Form field: phosphorylation enrichment at least 0.5? Entry: TGILLHGLASR [QARS1_Y57_Y57H]
Result: label 0

Query: Form field: phosphorylation enrichment at least 0.5? Entry: QMVRMYASSYM [AVPR2_Y124_G122R]
Result: label 1

Query: Form field: phosphorylation enrichment at least 0.5? Entry: VMTSKYRGGGG [HBA1_Y141_L137M]
Result: label 0

Query: Form field: phosphorylation enrichment at least 0.5? Entry: DFPGIYSGFDD [POLR1C_Y33_N32I_YF]
Result: label 1

Query: Form field: phosphorylation enrichment at least 0.5? Entry: GHLFAYNWISI [BEST1_Y227_D228N_YF]
Result: label 1

Query: Form field: phosphorylation enrichment at least 0.5? Entry: ERCAQYKKDGA [ALDOA_Y138]
Result: label 0

Query: Form field: phosphorylation enrichment at least 0.5? Entry: EGGFAYVPLKD [PRIM2_Y208_D204G]
Result: label 0

Query: Form field: phosphorylation enrichment at least 0.5? Entry: KPLMPYMRFSR [SMARCE1_Y73_YF]
Result: label 0

Query: Form field: phosphorylation enrichment at least 0.5? Entry: TEFSQYMRRKN [MAX_Y73_I71S_YF]
Result: label 1

Query: Form field: phosphorylation enrichment at least 0.5? Entry: PDDPNYSLVDD [PSTPIP2_Y323]
Result: label 1

Query: Form field: phosphorylation enrichment at least 0.5? Entry: IFHLSYLHNCE [PDE6B_Y227_YF]
Result: label 0

Query: Form field: phosphorylation enrichment at least 0.5? Entry: TFEFRYLEDQD [CNOT3_Y746_R750Q_YF]
Result: label 1

Query: Form field: phosphorylation enrichment at least 0.5? Entry: EAAFVYVISSA [WNT4_Y113_A114V]
Result: label 0

Query: Form field: phosphorylation enrichment at least 0.5? Entry: AQPHTYEEPGR [EPHA8_Y616_E612Q]
Result: label 0

Query: Form field: phosphorylation enrichment at least 0.5? Entry: DVFLKHLNFAT [PDE6B_Y212_Y212H]
Result: label 0

Query: Form field: phosphorylation enrichment at least 0.5? Entry: WAFNLYDINKF [KCNIP3_Y174_D179Y_YF]
Result: label 1

Query: Form field: phosphorylation enrichment at least 0.5? Entry: IRKDLYSNNVL [ACTC1_Y296_A297S]
Result: label 1

Query: Form field: phosphorylation enrichment at least 0.5? Entry: VGEGPYLISDL [ABCC12_Y7]
Result: label 0

Query: Form field: phosphorylation enrichment at least 0.5? Entry: KMLEKYKERLN [TLK2_Y259]
Result: label 0

Query: Form field: phosphorylation enrichment at least 0.5? Entry: KATKGYLDDPT [G6PD_Y322_E317K]
Result: label 0

Query: Form field: phosphorylation enrichment at least 0.5? Entry: NHYKICNLCAE [PTEN_Y68_Y68C]
Result: label 0

Query: Form field: phosphorylation enrichment at least 0.5? Entry: HNVPIYEGFAL [ACTA1_Y168_YF]
Result: label 1

Query: Form field: phosphorylation enrichment at least 0.5? Entry: LENSTYQFIHV [CRB1_Y760_R764H_YF]
Result: label 1

Query: Form field: phosphorylation enrichment at least 0.5? Entry: ADAHHYLCKEV [JAK2_Y382]
Result: label 0

Query: Form field: phosphorylation enrichment at least 0.5? Entry: KPGLVYNKVNP [SPRED3_Y72]
Result: label 0

Query: Form field: phosphorylation enrichment at least 0.5? Entry: CTTIHYNFRCN [TP53_Y234_M237R_YF]
Result: label 0

Query: Form field: phosphorylation enrichment at least 0.5? Entry: FSMGCYEISLG [HMGCL_Y198_YF]
Result: label 1

Query: Form field: phosphorylation enrichment at least 0.5? Entry: PSSRDYKDNIK [PIGN_Y227_H229D]
Result: label 1

Query: Form field: phosphorylation enrichment at least 0.5? Entry: FLAVGYHKPYI [IDS_Y225_H229Y]
Result: label 0

Query: Form field: phosphorylation enrichment at least 0.5? Entry: HPFHVYSQPGM [BAG3_Y114_P115S]
Result: label 1

Query: Form field: phosphorylation enrichment at least 0.5? Entry: REVPVYTYSEP [FAM120B_Y368_D370Y]
Result: label 1

Query: Form field: phosphorylation enrichment at least 0.5? Entry: KKGIVYVFNGR [ITGAV_Y404_I405V]
Result: label 0

Query: Form field: phosphorylation enrichment at least 0.5? Entry: NDQANYSLNTD [ADA_Y290]
Result: label 1

Query: Form field: phosphorylation enrichment at least 0.5? Entry: ARSHIYTFASC [MEFV_Y741]
Result: label 1

Query: Form field: phosphorylation enrichment at least 0.5? Entry: YFCRWYRNRKS [EREG_Y144]
Result: label 1

Query: Form field: phosphorylation enrichment at least 0.5? Entry: CENCHYPIVPL [LCK_Y25]
Result: label 0

Query: Form field: phosphorylation enrichment at least 0.5? Entry: RQAQAYRGQRV [TSHR_Y706]
Result: label 1

Query: Form field: phosphorylation enrichment at least 0.5? Entry: KLPYLYDDPFS [GPX2_Y127_P126L]
Result: label 1

Query: Form field: phosphorylation enrichment at least 0.5? Entry: LTERSYSFVTT [ACTA1_Y200_G199S]
Result: label 1

Query: Form field: phosphorylation enrichment at least 0.5? Entry: ELPQTYCVSGP [DYSF_Y1684_G1679E]
Result: label 0
